Exercise: state measured Enzyme Activity Endpoint Assay: Fab′2 for each of the proteins provided.
# study-target: pooled human IgG (human IgG1,2,3 and 4)
# number only, unit ng/µL dropped from output

Kindly note the recorded Enzyme Activity Endpoint Assay: Fab′2 for PRT-100 (protein) MANQEIRYSEVTPYHVTSVWTKGVTPPAKFTQGEDVFHAPYVANQGWYDITKTFNGKDDLLCGAATAGNMLHWWFDQNKEKIEAYLKKHPDKQKIMFGDQELLDVRKVINTKGDQTNSELFNYFRDKAFPNLSARRIGVMPDLVLDMFINGYYLNVYKTQTTDVNRTYQEKDRRGGIFDAVFTRGDQSKLLTSRHDFKEKNLKEISDLIKKELTEGKALGLSHTYANVRINHVINLWGADFDSNGNLKAIYVTDSDSNASIGMKKYFVGVNSAGKVAISAKEIKEDNIGAQVLGLFTLSTGQDSWNQTN , which is 513

Kindly note the recorded Enzyme Activity Endpoint Assay: Fab′2 for PRT-482 (protein) MVTSVWTKGVTPPTDFIKGEDVFHAPYKAGQGWYDITKTFNGKDNLLCGAATAGNMLHWWFDQNKDQIEAYLKEHPEKQKIIFNNQELFDLKAAIDTKDDQTNSKLFEYFKEKAFPYLSTKHLGVFPDHVLDMFINGYRLSLTNHGPTPVKEGSKDKRGGIFDAVFTRGVQSKLLTSRHDFKEKTLKEISDLIKQELTEGKALALSHTYANVRINHVINLWGADFDSNGNLEAIYVTDSDTNASIGMKKYFVGVNSAGKVAISAKEIEDDNIGAQVLGLFTLSTGQDIWNQTNLEHHHHHH , which is 261

Kindly note the recorded Enzyme Activity Endpoint Assay: Fab′2 for PRT-446 (protein) MVTSVWTKGVTPPTDFIKGEDVFHAPYKAGQGWYDITKTFNGKDDLLCGAATAGNMLHWWFDQNKDQIEAYLKEHPEKQKINFNGEQMFDVKEAIDTKDDQTNSKLFEYFKEKAFPYLSTKHLGVFPDHVLDMFINGYRLSLTNHGPTPVKEGSKDPRGGIFDAVFTRGDQSKLLTSRHDFKEKTLKEISDLIKQELTEGKALALSHTYANVRINHVINLWGADFDSNGNLEAIYVTDSDSNASIGMKKYFVGVNSAGKVAISAKEIEDDNIGAQVLGLFTLSTGQDIWNQTNLEHHHHHH , which is 1130

Kindly note the recorded Enzyme Activity Endpoint Assay: Fab′2 for PRT-106 (protein) MRNATEAYAKEVPHQITSVWTKGVTPLTPEQFRYNNEDVIHAPYLAHQGWYDITKTFNGKDNLLCGAATAGNMLHWWFDQNKTEIEAYLSKHPEKQKIIFNNQELFDLKAAIDTKDSQTNSQLFNYFRDKAFPNLSARQLGVMPDLVLDMFINGYYLNVFKTQSTDVNRPYQDKDKRGGIFDAVFTRGDQTTLLTARHDLKNKGLNDISTLIKQELTEGRALALSHTYANVSISHVINLWGADFNAEGNLEAIYVTDSDANASIGMKKYFVGINASGKVAISAKKIEGENIGAQVLGLFTLSSGKDIWQKLS , which is 739

Kindly note the recorded Enzyme Activity Endpoint Assay: Fab′2 for PRT-455 (protein) MITSVWTKGVTPPTDFIKGEDVFHAPYKAGQGWYDITKAFDGGDDLLCGAATAGNMLHWWFDQNKDQIEAYLKEHPEKQKINFNGEQMFDVKEAIDTKDDQTNSELFNYFKEKAFPYLSTKHLGVFPDHVLDMFINGYRLSLTNHGPTPVKRQEKDPRGGIFDAVFGRGDQTKLLTSRHDLKNKTLNEISQLIKQELTEGKALALSHTYANVRINHVINLWGADFDAEGNLEAIYVTDSDSNASIGMKKYFVGVNSAGKVAISAKEIEDDNIGAQVLGLFTLSTGQKIWNKTNLEHHHHHH , which is 872

Kindly note the recorded Enzyme Activity Endpoint Assay: Fab′2 for PRT-91 (protein) MANQEIRYSEETPYHITSVWTKGVTPPAKFTQGEDVFHAPYVANQGWYDITKTFNGKDDLLCGAATAGNMLHWWFDQNKEKIEAYLKKHPEKQKIMFGDQELLDVRKVINTKDDQTNSELFNYFRDKAFPNLSARRLGVMPDLVLDMFINGYYLNVGKTQTTDVNRTYQEKDKRGGIFDAVFTRGDQSKLLTSRHDFKEKNLKEISDLIKQELTEGKALGLSHTYANVRINHVINLWGADFDSNGNLKAIYVTDSDSNASIGMKKYFVGVNSAGKVAISAKEIEEDNIGAQVLGLFTLSTGQDIWNQTN , which is 40

Kindly note the recorded Enzyme Activity Endpoint Assay: Fab′2 for PRT-99 (protein) MANQEIRYSEVTPYHVTSVWTKGVTPPAKFTQGEDVFHAPYVANQGWYDITKTFNGKDDLLCGAATAGNMLHWWFDQNKEKIEAYLKKHPDKQKIMFGDQELLDVRKVINTKGDQTNSELFNYFRDKAFPGLSARRIGVMPDLVLDMFINGYYLNVYKTQTTDVNRTYQEKDRRGGIFDAVFTRGDQSKLLTSRHDFKEKNLKEISDLIKKELTEGKALGLSHTYANVRINHVINLWGADFDSNGNLKAIYVTDSDSNASIGMKKYFVGVNSAGKVAISAKEIKEDNIGAQVLGLFTLSTGQDIWNQTN , which is 489

Kindly note the recorded Enzyme Activity Endpoint Assay: Fab′2 for PRT-618 (protein) MQITSVWTKGVIPLTPEQFRYNNEDVIHAPYLPHQGWYDITKAFDGGDNLLCGAATAGNMLHWWFDQNKTEIEAYLSKYPEKQKIIFNNQELFDLRAAINTKDSQTNSQLFNYFRDKAFPNLSARQLGVMPDLVLDMFINGYYLNVFKTQSTDVNRPYQDRDKRGGIFDHVFGRGDQTTLLTARHDLKNGGLNDISTIIKQELQSGRALALSHTYANVSISHVINLWGADFNAEGNLEAIYVTDSDANSSIGMKKYYVGINAHGHVAISAKKIEGENIGAQVLGLFTLSSGKEIWQKLSLEHHHHHH , which is 976
